I'd be grateful if you could share measured EC50 for these entries.
system: T1, GST-RIM2 (KIAA0751) PDZ domain 1 (human)
T1 construct: Construct RIM2, PDZ domain 1-pGEX-3X; vector sites BamH1/EcoR1, insert sites BglII/MfeI; also called GST-RIM2 PDZ domain; RIM3 (as printed once)
T1 sequence (chain, as listed by the source): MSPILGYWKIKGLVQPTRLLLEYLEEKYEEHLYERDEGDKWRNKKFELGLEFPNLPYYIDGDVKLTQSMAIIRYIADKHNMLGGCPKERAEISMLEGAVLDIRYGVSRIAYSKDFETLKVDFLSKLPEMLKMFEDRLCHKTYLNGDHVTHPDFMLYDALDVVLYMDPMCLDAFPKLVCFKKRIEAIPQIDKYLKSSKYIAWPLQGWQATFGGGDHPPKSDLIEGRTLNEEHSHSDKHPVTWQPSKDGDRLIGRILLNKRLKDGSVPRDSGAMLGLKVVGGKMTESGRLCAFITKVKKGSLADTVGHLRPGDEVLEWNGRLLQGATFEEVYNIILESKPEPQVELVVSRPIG
procedureText: modified ELISA, plated GST-RIM2 PDZ domain, biotinylated peptide 0.001-10 µM, curve fit; Relative EC50
Where no end group is shown, it is not given here.
Numbers only, in nM.

Some solved entries appear below for comparison.
YGRKKRRQRRRARSDRKRIA (also: biotinylated, position not given here, TAT plus 9 residues; also called AVC#1831) [YGRKKRRQRRRARSDRKRIA (SEQ ID NO: 147)] ... 45
YGRKKRRQRRRARTDRKVEV (also: biotinylated, position not given here, TAT plus 9 residues; also called AVC#1837) [YGRKKRRQRRRARTDRKVEV (SEQ ID NO: 153)] ... 40
YGRKKRRQRRRSRTDRKYQI (also: biotinylated (position not given here), TAT plus 9 residues; also called AVC#1839) [YGRKKRRQRRRSRTDRKYQI (SEQ ID NO: 155)] ... 22
YGRKKRRQRRRARGDRKKIV (also: biotinylated, position not given here, TAT plus 9 residues; also called AVC#1850) [YGRKKRRQRRRARGDRKKIV (SEQ ID NO: 166)] ... 47

Please supply EC50 for each of the following items, keeping them in order.
1. YGRKKRRQRRRARSDRTIIA (also: biotinylated, position not given here, TAT plus 9 residues; also called AVC#1830) [YGRKKRRQRRRARSDRTIIA (SEQ ID NO: 146)]
2. YGRKKRRQRRRARGDRKRWA (also: biotinylated, position not given here, TAT plus 9 residues; also called AVC#1821) [YGRKKRRQRRRARGDRKRWA (SEQ ID NO: 140)]
3. YGRKKRRQRRRKNKDKEYYV (also: biotinylated, position not given here, TAT plus 9 residues; also called AVC#1852) [YGRKKRRQRRRKNKDKEYYV (SEQ ID NO: 168)]
4. YGRKKRRQRRRAVAATSINL (also: biotinylated, position not given here, TAT plus 9 residues; also called AVC#1791; AVC 1791) [YGRKKRRQRRRAVAATSINL (SEQ ID NO: 138)]

[13, 7, 13, 40]

Source of measurements: patent US20080090770A1
